The origin of these recorded values is patent US20210115124A1.

Below: a set of entries, each annotated with reported fold change in binding affinity (Kd) compared to G6.31.
Biological target: T1, human VEGF (hVEGF) (human, UniProt P15692 181-395)
T1 construct: also called VEGF-A
T1 sequence: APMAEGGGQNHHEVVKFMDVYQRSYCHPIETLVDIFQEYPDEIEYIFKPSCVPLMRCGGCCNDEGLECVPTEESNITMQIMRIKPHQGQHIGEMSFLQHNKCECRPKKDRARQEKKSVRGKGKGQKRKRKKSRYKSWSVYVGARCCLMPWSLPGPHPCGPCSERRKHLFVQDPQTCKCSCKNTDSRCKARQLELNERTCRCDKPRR
Assay: BIACORE SPR on immobilised hVEGF; label beside the mutation on the structure of the VEGF-bound G6 Fab (PDB 2FJG)
// units = x; emit number, no label

G6.31 LC-L73G (Fab, V domains shown, Fab) VH: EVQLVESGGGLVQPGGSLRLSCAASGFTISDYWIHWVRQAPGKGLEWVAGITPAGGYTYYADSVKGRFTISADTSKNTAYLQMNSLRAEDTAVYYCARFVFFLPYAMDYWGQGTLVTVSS VL: DIQMTQSPSSLSASVGDRVTITCRASQDVSTAVAWYQQKPGKAPKLLIYSASFLYSGVPSRFSGSGSGTDFTGTISSLQPEDFATYYCQQGYGNPFTFGQGTKVEIK ... 2
G6.31 LC-S50M (Fab, V domains shown, Fab) VH: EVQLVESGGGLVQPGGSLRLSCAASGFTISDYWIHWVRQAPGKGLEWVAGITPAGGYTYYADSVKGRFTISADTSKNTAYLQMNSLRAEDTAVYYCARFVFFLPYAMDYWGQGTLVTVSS VL: DIQMTQSPSSLSASVGDRVTITCRASQDVSTAVAWYQQKPGKAPKLLIYMASFLYSGVPSRFSGSGSGTDFTLTISSLQPEDFATYYCQQGYGNPFTFGQGTKVEIK ... 1

# next binder below
Problem: Look up fold change in binding affinity (Kd) compared to G6.31 for this binder: G6.31 LC-Y36G (Fab, V domains shown, Fab) VH: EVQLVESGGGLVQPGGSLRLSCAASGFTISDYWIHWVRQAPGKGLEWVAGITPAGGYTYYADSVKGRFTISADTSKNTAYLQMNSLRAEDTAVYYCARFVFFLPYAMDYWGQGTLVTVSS VL: DIQMTQSPSSLSASVGDRVTITCRASQDVSTAVAWGQQKPGKAPKLLIYSASFLYSGVPSRFSGSGSGTDFTLTISSLQPEDFATYYCQQGYGNPFTFGQGTKVEIK
Result: 0.5
